Each recorded value in this set is attributed to patent US10556926B2.

# System: E. coli DH5α
# run parameters: MHB, 18 hours at 37° C.; mean of four test series
No end group written: not given here.
measurement name: MIC E. coli (µM)
A number alone suffices; assume µM.

Request: Entry KKKIIIIIIKKK-NH2 [O1′] has what MIC E. coli?
Response: 4

Request: Entry MPRRRRSSSRPVRRRRRPRVSRRRRRRGGRRR (Protamine) has what MIC E. coli?
Response: 8

Request: Entry ILPWKWPWWPWRR [Indolicidin] has what MIC E. coli?
Response: 4

Request: Entry KILILIKRK-OH [N4] has what MIC E. coli?
Response: 32

// moving on: another record for MIC E. coli
Request: Entry KRKRKILILIKRK-OH [N1] has what MIC E. coli?
Response: 8

----------
# Test system: Staphylococcus xylosus
# run parameters: MHB, 18 hours at 37° C.; mean of four test series
No end group written: not given here.
MIC S. xylosus values by entry
A number alone suffices; assume µM.

Consider the worked cases shown below.
Request: Entry KKKIIIIIIKKK-NH2 [O1′] has what MIC S. xylosus?
Response: 0.25

Request: Entry KRKRKILILIKRK-OH [N1] has what MIC S. xylosus?
Response: 0.5

Request: Entry KILILIKRK-OH [N4] has what MIC S. xylosus?
Response: 16

Request: Entry MPRRRRSSSRPVRRRRRPRVSRRRRRRGGRRR (Protamine) has what MIC S. xylosus?
Response: 0.5

// moving on: another record for MIC S. xylosus
Request: Entry ILPWKWPWWPWRR [Indolicidin] has what MIC S. xylosus?
Response: 32

----------
# Test system: E. coli ML-35p
# assay protocol: Kinetics of permeabilization of the inner bacteria membrane (ONPG)
# Format: cell-based, Escherichia coli
# run parameters: 32 μM peptide
No end group written: not given here.
measurement name: Inner membrane, time to 50% of final signal

Request: Checklist item: Inner membrane, time to 50% of final signal tested on E. coli ML-35p, entry MPRRRRSSSRPVRRRRRPRVSRRRRRRGGRRR (Protamine) [protamine from salmon, grade IV, histone-free (Sigma-Aldrich)] , value?
Response: >90 min

Request: Checklist item: Inner membrane, time to 50% of final signal tested on E. coli ML-35p, entry ILPWKWPWWPWRR [Indolicidin] , value?
Response: >90 min

// moving on: another record for Inner membrane, time to 50% of final signal
Request: Checklist item: Inner membrane, time to 50% of final signal tested on E. coli ML-35p, entry KILILIKRK-OH [N4] , value?
Response: >90 min

----------
# Test system: E. coli ML-35p
# assay protocol: Kinetics of permeabilization of the outer bacteria membrane (nitrocefin)
# Type: cell-based, Escherichia coli
# run parameters: 8 μM peptide
No end group written: not given here.
Outer membrane, time to 50% of final signal values by entry

Consider the worked cases shown below.
Request: Checklist item: Outer membrane, time to 50% of final signal tested on E. coli ML-35p, entry MPRRRRSSSRPVRRRRRPRVSRRRRRRGGRRR (Protamine) [protamine from salmon, grade IV, histone-free (Sigma-Aldrich)] , value?
Response: <1 min

Request: Checklist item: Outer membrane, time to 50% of final signal tested on E. coli ML-35p, entry GRFKRFRKKFKKLFKKLSPVIPLLHLG-OH [BMAP-27] , value?
Response: <1 min

// moving on: another record for Outer membrane, time to 50% of final signal
Request: Checklist item: Outer membrane, time to 50% of final signal tested on E. coli ML-35p, entry ILPWKWPWWPWRR [Indolicidin] , value?
Response: >90 min
